So I've got a bunch of compounds here, and I need their Ki values.
TARGET_OR_SYSTEM: Na,K-ATPase α2β1 isoform complex (Homo sapiens, UniProt P50993)
PROCEDURE_SUMMARY: biochemical
Format: biochemical
Parameters: made in house; host or cells: Pichia pastoris SMD1165
EXPERIMENTAL_CONTEXT: Ki, nM ± SEM α2β1, Table 6
Give bare numbers, in nM.

CC(C)CN1CCC(OC2C(O)CC(OC3C(O)CC(OC4CCC5(C)C(CCC6C5CC(O)C5(C)C(C7=CC(=O)OC7)CCC65O)C4)OC3C)OC2C)OC(C)C1 (stereo not drawn) :: 20.6
CC1CN(C(C)C)CCC(OC2C(O)CC(OC3C(O)CC(OC4CCC5(C)C(CCC6C5CC(O)C5(C)C(C7=CC(=O)OC7)CCC65O)C4)OC3C)OC2C)O1 (stereo not drawn) :: 28.9

Turning to the following compound.
Query string: # input compound: CC1CN(C)CCC(OC2C(O)CC(OC3C(O)CC(OC4CCC5(C)C(CCC6C5CC(O)C5(C)C(C7=CC(=O)OC7)CCC65O)C4)OC3C)OC2C)O1 (stereo not drawn) ; wanted: its Ki
Result string: 15.3

---

TARGET_OR_SYSTEM: Na,K-ATPase α2β1 isoform complex (Homo sapiens)
PROCEDURE_SUMMARY: biochemical
Type: biochemical
Set-up: made in house; host or cells: Pichia pastoris SMD1165
EXPERIMENTAL_CONTEXT: Ki, nM ± SEM α2β1, Table 6
READOUT: Ki (nM)
Give bare numbers, in nM.

Some solved cases for reference:
CCCN1CCC(OC2C(O)CC(OC3C(O)CC(OC4CCC5(C)C(CCC6C5CC(O)C5(C)C(C7=CC(=O)OC7)CCC65O)C4)OC3C)OC2C)OC(C)C1 (centres unmarked) [DP] :: 18.3
CC1CN(CC(F)(F)F)CCC(OC2C(O)CC(OC3C(O)CC(OC4CCC5(C)C(CCC6C5CC(O)C5(C)C(C7=CC(=O)OC7)CCC65O)C4)OC3C)OC2C)O1 (centres unmarked) [DMeCF3] :: 28.6
CC1CN(C(C)(C)C)CCC(OC2C(O)CC(OC3C(O)CC(OC4CCC5(C)C(CCC6C5CC(O)C5(C)C(C7=CC(=O)OC7)CCC65O)C4)OC3C)OC2C)O1 (centres unmarked) [DtB] :: 21.6
CC1CN(C[Si](C)(C)C)CCC(OC2C(O)CC(OC3C(O)CC(OC4CCC5(C)C(CCC6C5CC(O)C5(C)C(C7=CC(=O)OC7)CCC65O)C4)OC3C)OC2C)O1 (centres unmarked) [DTMS] :: 31.5

Turning to the following compound.
Query string: # input compound: CCN1CCC(OC2C(O)CC(OC3C(O)CC(OC4CCC5(C)C(CCC6C5CC(O)C5(C)C(C7=CC(=O)OC7)CCC65O)C4)OC3C)OC2C)OC(C)C1 (centres unmarked) [DEt] ; wanted: its Ki
Result string: 23.2

---

System: intra-ocular pressure (IOP) of rabbits
PROCEDURE_SUMMARY: 4-aminopyridine (4AP)-induced ocular hypertension in rabbits
Format: in vivo, New Zealand white rabbits
EXPERIMENTAL_CONTEXT: 1 mM, single drop, 4AP every two hours
READOUT: Time IOP is maintained at the low level (h)
Give bare numbers, in h.

C[C@H]1O[C@@H](O[C@H]2[C@@H](O)C[C@H](O[C@H]3[C@@H](O)C[C@H](O[C@H]4CC[C@@]5(C)[C@H](CC[C@@H]6[C@@H]5C[C@@H](O)[C@]5(C)[C@@H](C7=CC(=O)OC7)CC[C@]65O)C4)O[C@@H]3C)O[C@@H]2C)C[C@H](O)[C@@H]1O [Digoxin, digoxin, reference compound] :: 1

Turning to the following molecule.
Query string: # input molecule: CC1CN(CC(N)=O)CCC(OC2C(O)CC(OC3C(O)CC(OC4CCC5(C)C(CCC6C5CC(O)C5(C)C(C7=CC(=O)OC7)CCC65O)C4)OC3C)OC2C)O1 (stereo not shown) [DGlyN] ; wanted: its Time IOP is maintained at the low level
Result string: 3.5

---

TARGET_OR_SYSTEM: Na,K-ATPase α1β1 isoform complex (Homo sapiens)
PROCEDURE_SUMMARY: biochemical
EXPERIMENTAL_CONTEXT: Ki ± S.E. α1, Table 2; α1β1
READOUT: Ki (nM)
One number for each entry, in nM.

Some solved cases for reference:
CC1CN(C(C)C(N)=O)CCC(OC2C(O)CC(OC3C(O)CC(OC4CCC5(C)C(CCC6C5CC(O)C5(C)C(C7=CC(=O)OC7)CCC65O)C4)OC3C)OC2C)O1 (stereo not drawn) [DAlaN] :: 232
CC1CN(CC(=O)O)CCC(OC2C(O)CC(OC3CCC4(C)C(CCC5C4CC(O)C4(C)C(C6=CC(=O)OC6)CCC54O)C3)OC2C)O1 (stereo not drawn) [DbisGly] :: 80
CC1CN(C(CO)C(=O)O)CCC(OC2C(O)CC(OC3C(O)CC(OC4CCC5(C)C(CCC6C5CC(O)C5(C)C(C7=CC(=O)OC7)CCC65O)C4)OC3C)OC2C)O1 (stereo not drawn) [DSer] :: 316
CC1CN(CC(=O)O)CCC(OC2C(O)CC(OC3C(O)CC(OC4CCC5(C)C(CCC6C5CC(O)C5(C)C(C7=CC(=O)OC7)CCC65O)C4)OC3C)OC2C)O1 (stereo not drawn) [DGly] :: 124

Dear colleague, could you send me Ki for each of the items below? Thanks.
1. CC1CN(C)CCC(OC2C(O)CC(OC3C(O)CC(OC4CCC5(C)C(CCC6C5CC(O)C5(C)C(C7=CC(=O)OC7)CCC65O)C4)OC3C)OC2C)O1 (stereo not drawn) [DMe]
2. CC1CN(CCC(N)=O)CCC(OC2C(O)CC(OC3C(O)CC(OC4CCC5(C)C(CCC6C5CC(O)C5(C)C(C7=CC(=O)OC7)CCC65O)C4)OC3C)OC2C)O1 (stereo not drawn) [DPrN]
3. CC1CN(O)CCC(OC2C(O)CC(OC3C(O)CC(OC4CCC5(C)C(CCC6C5CC(O)C5(C)C(C7=CC(=O)OC7)CCC65O)C4)OC3C)OC2C)O1 (stereo not drawn) [DOH]

Result string:
101
249
311

Dear colleague, could you send me Ki for each of the items below? Thanks.
1. CC1CN(C(CO)C(N)=O)CCC(OC2C(O)CC(OC3C(O)CC(OC4CCC5(C)C(CCC6C5CC(O)C5(C)C(C7=CC(=O)OC7)CCC65O)C4)OC3C)OC2C)O1 (stereo not drawn) [DSerN]
2. CC1CN(CCN)CCC(OC2C(O)CC(OC3C(O)CC(OC4CCC5(C)C(CCC6C5CC(O)C5(C)C(C7=CC(=O)OC7)CCC65O)C4)OC3C)OC2C)O1 (stereo not drawn) [DEtDA]
3. CC1CN(CC(N)=O)CCC(OC2C(O)CC(OC3C(O)CC(OC4CCC5(C)C(CCC6C5CC(O)C5(C)C(C7=CC(=O)OC7)CCC65O)C4)OC3C)OC2C)O1 (stereo not drawn) [DGlyN]
4. CCN1CCC(OC2C(O)CC(OC3C(O)CC(OC4CCC5(C)C(CCC6C5CC(O)C5(C)C(C7=CC(=O)OC7)CCC65O)C4)OC3C)OC2C)OC(C)C1 (stereo not drawn) [DEt]
5. C[C@]12CC[C@H](O)C[C@H]1CC[C@@H]1[C@@H]2C[C@@H](O)[C@]2(C)[C@@H](C3=CC(=O)OC3)CC[C@]12O [Digoxigenin, digoxigenin, reference compound]

Result string:
1: 242; 2: 69; 3: 152; 4: 53; 5: 139

---

So I've got a bunch of compounds here, and I need their Ki values.
TARGET_OR_SYSTEM: Na,K-ATPase α1β1 isoform complex (Homo sapiens, UniProt P05023)
PROCEDURE_SUMMARY: biochemical
EXPERIMENTAL_CONTEXT: Ki ± S.E. α1, Table 2; α1β1
One number for each entry, in nM.

Some solved cases for reference:
CC1CN(NC(N)=O)CCC(OC2C(O)CC(OC3C(O)CC(OC4CCC5(C)C(CCC6C5CC(O)C5(C)C(C7=CC(=O)OC7)CCC65O)C4)OC3C)OC2C)O1 (stereo not drawn) [DSCar] :: 102
COC(=O)CN1CCC(OC2C(O)CC(OC3C(O)CC(OC4CCC5(C)C(CCC6C5CC(O)C5(C)C(C7=CC(=O)OC7)CCC65O)C4)OC3C)OC2C)OC(C)C1 (stereo not drawn) [DGlMe] :: 540

Turning to the following compound.
Query string: # input compound: CC1CN(CC(F)(F)F)CCC(OC2C(O)CC(OC3C(O)CC(OC4CCC5(C)C(CCC6C5CC(O)C5(C)C(C7=CC(=O)OC7)CCC65O)C4)OC3C)OC2C)O1 (stereo not drawn) [DMeCF3] ; wanted: its Ki
Result string: 199

---

Test system: Na,K-ATPase α2β1 isoform complex
PROCEDURE_SUMMARY: biochemical
Format: biochemical, human
EXPERIMENTAL_CONTEXT: ratio of Ki, Table 6
Method: Methods for transformation, culture of P. pastoris clones, protein expression of Na,K-ATPase human isoforms (α1β1, α2β1, α3β1), membrane preparation, solubilization of membranes in DDM, and purification on BD-Talon beads have been described in detail (6-9, 11, 25). […] Protein concentration was determined with BCA (B9643 Sigma). Inhibition of Na,K-ATPase activity of the detergent-soluble α1β1, α2β1, and α3β1 complexes by CG's was determined as described (6) using either the αβ or αβFXYD1 complexes. […]
READOUT: Selectivity α1β1/α2/β1
One number for each entry.

Some solved cases for reference:
CC1CN(C(C)(C)C)CCC(OC2C(O)CC(OC3C(O)CC(OC4CCC5(C)C(CCC6C5CC(O)C5(C)C(C7=CC(=O)OC7)CCC65O)C4)OC3C)OC2C)O1 (stereo not shown) [DtB] :: 6.2
CC1CN(C[Si](C)(C)C)CCC(OC2C(O)CC(OC3C(O)CC(OC4CCC5(C)C(CCC6C5CC(O)C5(C)C(C7=CC(=O)OC7)CCC65O)C4)OC3C)OC2C)O1 (stereo not shown) [DTMS] :: 3.4
CC1CN(C(C)C)CCC(OC2C(O)CC(OC3C(O)CC(OC4CCC5(C)C(CCC6C5CC(O)C5(C)C(C7=CC(=O)OC7)CCC65O)C4)OC3C)OC2C)O1 (stereo not shown) [DIP] :: 5.1

Dear colleague, could you send me Selectivity α1β1/α2/β1 for each of the items below? Thanks.
1. CCN1CCC(OC2C(O)CC(OC3C(O)CC(OC4CCC5(C)C(CCC6C5CC(O)C5(C)C(C7=CC(=O)OC7)CCC65O)C4)OC3C)OC2C)OC(C)C1 (stereo not shown) [DEt]
2. CC1CN(C)CCC(OC2C(O)CC(OC3C(O)CC(OC4CCC5(C)C(CCC6C5CC(O)C5(C)C(C7=CC(=O)OC7)CCC65O)C4)OC3C)OC2C)O1 (stereo not shown) [DMe]
3. CCCN1CCC(OC2C(O)CC(OC3C(O)CC(OC4CCC5(C)C(CCC6C5CC(O)C5(C)C(C7=CC(=O)OC7)CCC65O)C4)OC3C)OC2C)OC(C)C1 (stereo not shown) [DP]

Result string:
5.9
6.7
4.8

Query string: # query: Selectivity α1β1/α2/β1 | item CC1CN(CC(F)(F)F)CCC(OC2C(O)CC(OC3C(O)CC(OC4CCC5(C)C(CCC6C5CC(O)C5(C)C(C7=CC(=O)OC7)CCC65O)C4)OC3C)OC2C)O1 (stereo not shown) [DMeCF3] | system: Na,K-ATPase α2β1 isoform complex
Result string: 4.1
